tested.on: T1, human GPRC5D (human, UniProt Q9NZD1 1-345)
T1 construct: whole, on cells; also called hGPRC5D; G-protein coupled receptor family C group 5 member D
assay.procedure: FACS, CHOS-hGPRC5D cells
readout.name: EC50 (nM)
// return numeric value only (unit: nM, not printed)

In: Could you tell me which EC50 is on file for ch36A3G8 (antibody, V domains shown) VH: QVQLQQSGAELARPGASVKMSCKASGYTFTTYTMHWIKQRPGQDLEWIGFINPSSGYTKYNQNFKDKATLTADKSSTTAYMQLNSLTSEDSAVYYCASPYGNIYFDVWGTGTTVTVSS VL: DIVMTQSQKFMSTAVGDRVSITCKASQNVGTAVAWYQQKPGQSPKLLIYSASNRYTGVPDRFTGSGSGTDFTLTISNMQSEDLADYFCQQYSSYPLTFGAGTKLELK ?
Out: 2.64

In: Could you tell me which EC50 is on file for ch101B3G3 (antibody, V domains shown) VH: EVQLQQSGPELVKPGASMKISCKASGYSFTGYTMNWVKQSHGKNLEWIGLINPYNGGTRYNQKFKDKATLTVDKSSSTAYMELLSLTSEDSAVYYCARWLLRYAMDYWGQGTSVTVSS VL: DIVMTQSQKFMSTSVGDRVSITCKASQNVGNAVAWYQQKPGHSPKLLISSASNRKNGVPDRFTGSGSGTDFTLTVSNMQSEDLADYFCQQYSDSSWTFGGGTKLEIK ?
Out: 4.85

In: Could you tell me which EC50 is on file for ch82A1C10 (antibody, V domains shown) VH: QVQLKESGPGLVAPSQSLSITCTVSGFSLTNYAVTWVRQPPGKGLEWLGVIWGDGSTYYHSALVSRLSITKDNSRTQVLLKLNSLQTDDTARYYCAKGGYSPFAYWGQGTLVTVSA VL: DVVMTQTPLSLPVSLGDQASISCRSSQSLVHSNGNTYLHWYLQKPGQSPKLLIFKVSNRFSGVPDRFSGSGSGTDFTLKISRVEAEDLGVYFCSQNTHVPFTFGSGTKLEIK ?
Out: 2.76
